Data provenance: patent US20230049752A1

For each of the binders below, state its FACS fluorescence.
- tested target: human Claudin-6 (CLDN6) (human) (UniProt P56747)
- method: FACS, 0.3 ug Ab, 293T clone expressing human CLDN6 (2nd Ab only 768.07)
Enter the number alone.

Item AB1-Chim (antibody, V domains shown) VH: QVQLQQSAAELARPGASVKMSCKASGYTFTTYTMHWVKQRPGQGLEWIGFINPSSGYTDYNQKFKDRTTLTADKSSSTVYMQLSSLTSEDSAVYYCANGDYYVAYWGQGTLVTVSA VL: QIVLTQSPAIMSASLGERVTMTCTASSSVSSTYFHWYQQKPGSSPKLWIYSTSNLASGVPRRFSGSASGTSYSLTISSMEAEDAATYYCHQYHRSPLTFGAGTKLELK has what recorded FACS fluorescence?
312000

Item AB1-7 (antibody, V domains shown, humanized) VH: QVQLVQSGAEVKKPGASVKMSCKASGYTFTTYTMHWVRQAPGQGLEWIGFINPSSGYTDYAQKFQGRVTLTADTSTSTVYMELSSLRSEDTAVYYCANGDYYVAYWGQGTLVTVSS VL: DIQLTQSPSSLSASVGDRVTMTCTASSSVSSTYFHWYQQKPGKAPKLLIYSTSNLASGVPSRFSGSGSGTDYTLTISSMQPEDAATYYCHQYHRSPLTFGQGTKLEIK has what recorded FACS fluorescence?
79200
